Tested on: TO-N3 (biotin conjugate)
assay: pull-down binding Z-score (relative to library population); higher = stronger binding
measurement setup: RNA library: Library-2
Kindly note that classification relies on pull-down binding Z-score with these boundaries: LOW: < -0.4; MID: ≥ -0.4 and < 0.05; HIGH: ≥ 0.05

sequence entry	category label
GGCUGCUGGAUUGAAUUAGCUGCA [hsa-mir-1286]	HIGH
UGUCGUAGAAAGUAAUGGCA [hsa-mir-548l]	MID
UUGUCGUUAAAAAUAGCAA [hsa-mir-548n]	LOW
AUGAUUUUUGGGGUCA [hsa-mir-4678]	MID
AUCCAGUCCACUUAAUUCUGAGAAAGUCCACAGACUGGAUCGGGUCUUGGAUUUUAGCUGGAUUCAU [hsa-mir-6082]	MID
CAGUUUACUCACACCUUUUGCUCGUUGCUGCUG	MID
GGAAAUGAUUCC [IAV_invivo_PB2_1_Motif_4+IAV_invivo_PB2_1_Motif_4]	LOW
UUAACGUGAGUCUUGUAAAACCUUCUUUUUACGUUUACUCUCGUGUUAA [DMSMaPseq_invitro_SARS-CoV-2_Motif_474]	MID
UUCUUUUUUCUGAAAUUCUUCAGGAAGGA [hsa-mir-3167]	HIGH
CCUUCCAAUACCUGUAAGCAGAAGG [hsa-mir-3158-2]	HIGH
UGUUGAGCGCAGUAAGACAACA [hsa-mir-3529]	LOW
GUUGAAGUUGUUGAUAAGUACUUUGAUUGUUACGAUGGUGGCUGUAUUAAUGCUAACCAAGUCAUCGUCAACAACCUAGACAAAUCAGCUGGUUUUCCAUUUAAU	HIGH
GGAUGGUCUUCAAUCC [IAV_invivo_PB1_2_Motif_23+IAV_invivo_PB1_2_Motif_23]	LOW
CAAGUAAAAGGAAUUUUCAUUUUCCAGCCCCUAAUUG [hsa-mir-6739]	LOW
GGGACAUUGCGGAGAGGGUCUCACAUUGUCCC [hsa-mir-4646]	HIGH

---

Tested on: G-clamp-N3 (biotin conjugate)
assay: pull-down binding Z-score (relative to library population); higher = stronger binding
measurement setup: RNA library: Library-1 (pre-miRNA loops + repeats)
Everything with pull-down binding Z-score lower than -0.2 is F; everything else, including exactly -0.2, is T.

sequence entry	category label
UAGAGGGUAAAAUUAAUAACCUUCUA [hsa-mir-628]	T
GCUUUAUGUCCUGACCCAGCUAAAGC [hsa-mir-22]	T
GGUUGGGGUGGGCUGCCUGUGGACCAAUC [hsa-mir-4525]	T
CACUCUCCCUAAUGGGGCUGAAGACAGCUCAGGGGCAGGGUG [hsa-mir-4472-1]	T
GAACUAACUAACCAGAACUAUUUUGUUC [hsa-mir-4652]	F
UCCACCUAGACGGGCCUGGGUCAA [hsa-mir-4698]	F
UAGUCUAAUAGGGACUA [hsa-mir-5681b]	T
GAGUGAGGCCCAGUGGUCACCGCCGCCCUC [hsa-mir-4754]	F
UGUUCGUUUUGCUCAUGUCGAAUC [hsa-mir-487b]	F
GCUGCUGGUGCUCAUCUCAGC [hsa-mir-6877]	T
UGGAUUUGAAAUGGUCCCACUCCUGACGAUCCU [hsa-mir-6748]	F
UAGAUACUCAGGAGGGUGAGUAUCUA [hsa-mir-5689]	T
CAGGGCGGUGCGGCAGCCGCCACC [hsa-mir-3621]	F
AUGAUUUUUGGGGUCA [hsa-mir-4678]	T
UUCUUUGAGGAUCUGGCCUAAAGAG [hsa-mir-202]	F
UUUCUGUUGUCUGAAAGAAAAGAAC [hsa-mir-523]	F
GGAUUUGCUUCCUGUCACAAAUCA [hsa-mir-23a]	F
UUGUGGCAAUACAG [hsa-mir-8068]	T
GUGCAGCUUGUACCUGCAC [hsa-mir-1293]	T
UCUUAGCACGGGGUCUAAGG [hsa-mir-4747]	T
UGCUUUGUUAGAAACAAAAAGCA [hsa-mir-4679-1]	T
CAGAGGGGCUGGCAGUACUGCUCUG [hsa-mir-4649]	T
AGGGUGGAGCCCACUGUGGCUCCUGACUCAGCCCU [hsa-mir-6893]	F
AGCUUCUUUAUAAGAAGAGGAAACU [hsa-mir-3923]	T
UUUUUCUUUACUUUUAAUGGCAAA [hsa-mir-548u]	T

---

System: TO-3-N3-2 (biotin conjugate)
assay: pull-down binding Z-score (relative to library population); higher = stronger binding
measurement setup: RNA library: Library-2
Kindly note that classification relies on pull-down binding Z-score with these boundaries: group 1: < -0.3; group 2: ≥ -0.3 and < 0.04; group 3: ≥ 0.04

sequence entry	category label
UGUGCCUUGCCUUUCCUUUGGCACA [hsa-mir-4438]	group 2
CAUGCAGGCCACACUGACGGUAACGUUGCAGG [hsa-mir-431]	group 3
UGGAAUUGCAAUGUCGAUAGAUAUCCUGCUAAUUCCA	group 2
UGAACAGUGAUUGGUUUCCGCUUUGUUCA [hsa-mir-27b]	group 3
UGGCCUGGCAGUGCGUCGGAAGAACAGGGCGGGUGGGGCC [hsa-mir-4792]	group 3
GGAGAAAAUUCC [IAV_invivo_PA_3_Motif_17+IAV_invivo_PA_3_Motif_17]	group 1
UUCAUUCAUUCGUUUGCACAUUCGGUGAA [hsa-mir-493]	group 2
CAACGUAAGUUG [DMSMaPseq_invitro_SARS-CoV-2_Motif_215]	group 1
GCACUAUUGCCUUUGGAGGCUGUGUGU [SHAPE_invivo_SARS-CoV-2_Motif_29]	group 2
GAAAUACUUGUCACAUACAAUUGUUGUGAUGAUGAUUAUUUC	group 1
AUGCCCCAGGUGACGUGCUGGGCU [hsa-mir-4526]	group 3
AACGGGGCGGGCCCUGGGCGGGGUAA [G4_2A2_VEGF-Pu22-mt2]	group 3
CACAGAAAAGUACUGUG [SHAPE_invivo_SARS-CoV-2_Motif_52]	group 3
UUGCUCUUUGGUGGAGAUA [hsa-mir-6074]	group 2
UUUGCCAGAGCUACAAAGGCAAA [hsa-mir-561]	group 1
GGAUGAGAGAACUCAUCC [IAV_invivo_NP_5_Motif_6+IAV_invivo_NP_5_Motif_6]	group 1
UCCACCCUGGUCCAGGUCCACAGCAGUGGA [hsa-mir-4644]	group 3
AAUGUUUUAUUCUCUACAGUGUUCCCACUUACAAGUUUUGGACCACUAGUGAGAAAAAUAUU [DMSMaPseq_invitro_SARS-CoV-2_Motif_260]	group 1
UAGCUUGUUUUGUGCUUGCUG [SHAPE_invivo_SARS-CoV-2_Motif_507]	group 1
GACCCUGUGGGUU [SHAPE_invitro_SARS-CoV-2_Motif_242]	group 1
GAGGCCAGAGGUGCCC [hsa-mir-4292]	group 3
UUUUGCCAUUACUUUCAAUGGCAAAA [hsa-mir-548aa-2]	group 2
CAACAGUUCUGUAGCGCAAUUGUG [hsa-mir-203a]	group 2
GGUACAACAACUUACAAAUUAAAUGUUGGUGAUUAUUUUGUGCU [SHAPE_invivo_SARS-CoV-2_Motif_319]	group 2
GGUGGGCCUCUGCUCUGGCCCCUCC [hsa-mir-1343]	group 1

---

Tested on: TO-3-N3-2 (biotin conjugate)
assay: pull-down binding Z-score (relative to library population); higher = stronger binding
measurement setup: RNA library: Library-2
Everything with pull-down binding Z-score lower than 0.04 is NOT MET; everything else, including exactly 0.04, is MET.

sequence entry	category label
AGCACUUUCUGUUGUCUGAAAGAAAAGAAAGUGCU [hsa-mir-516a-1_516a-2]	MET
UCCCCUAGCGCGCCUUCUGGAGA [hsa-mir-3188]	NOT MET
GCAGAAAUCACUCCAGGAGCAACUGA [hsa-mir-936]	MET
GUGUCCUGAAAUUCACAGGACUG [hsa-mir-4700]	MET
CCGCUAGUGGAAGAAGAUGGCGG [hsa-mir-6125]	MET
UUCAGUUUCCUUACUGGUAA [hsa-mir-302e]	NOT MET
CAGCUGUUGUCUCCAGAGCAUUCCAGCUG [hsa-mir-191]	NOT MET
GAGCCUGUCACAUCUCCAGACUC [hsa-mir-3925]	NOT MET
AUCAAGACUAUUCAACCAAGGGUUGAAAAGAAAAAGCUUGAU	NOT MET
CCACAUAGGAGGGACAGCGGCCUUUCCAACAGG [hsa-mir-9500]	MET
CUCGUCUAUCUUCUGCAGGCUGCUUACGGUUUCGUCCGUGUUGCAGCCGAUCAUCAGCACAUCUAGGUUUUGUCCGGGUGUGACCGAAAGGUAAGAUGGAGAG	NOT MET
GGGUUGGGUUGGGUUGGGUUGGGUUGGGUUGGGUUGGGUU [G4_r(GGGUU)8]	MET
UCUUCCCAAAGUUGAGAAAA [hsa-mir-320d-1]	NOT MET
GACAAUAUGUAUAAUGUUCAUAAGUCAUUC [hsa-mir-384]	MET
GGCGAUUUUGUUAAAGCCACUUGCGAAUUUUGUGGCACUGAGAAUUUGACUAAAGAAGGUGCCACUACUUGUGGUUACUUACCCCAAAAUGCU	MET
UAAAUUUUUGGCUUUGUGUGCUGACUCUAUCAUUAUUGGUGGAGCUAAACUUAAAGCCUUGAAUUUA	MET
AGAAGCCCAGGUUCUGAAUCCCCU [hsa-mir-6734]	MET
UUUCUGUUGUCUGAAAGCAGA [hsa-mir-515-1_515-2]	MET
GGUUUCCUUCGGGGCAGGUGGGGACUGCUCCUUUGGGAGGAAGGAGGAGGCC [hsa-mir-4453]	MET
GCACCUCAUGGUGU	NOT MET
CUAAUCUCUUAGCACUGAAGAUUAG [hsa-mir-4671]	NOT MET
ACCAUAUCUAAGCUAAUGUGGUGGU [hsa-mir-876]	NOT MET
GUUUAUGAAAAACUCAAACCCGUCCUUGAUUGGCUUGAAGAGAAGUUUAAGGAAGGUGUAGAGUUUCUUAGAGAC	NOT MET
GUUGGGAUUGAGUUUUGAACUCGGC [hsa-mir-196a-2]	NOT MET
CUGGGGGAAGGCUCCAGACCCCAGCCU [hsa-mir-4267]	MET
AACACUUCCCACAGAAGUGUU	NOT MET
CAGCCCGUGGUGGGG [hsa-mir-3619]	MET
